biological target: native human MET on living cells (human, UniProt P08581 25-1390); test: cell-based or functional assay
Sequence (P08581 25-1390): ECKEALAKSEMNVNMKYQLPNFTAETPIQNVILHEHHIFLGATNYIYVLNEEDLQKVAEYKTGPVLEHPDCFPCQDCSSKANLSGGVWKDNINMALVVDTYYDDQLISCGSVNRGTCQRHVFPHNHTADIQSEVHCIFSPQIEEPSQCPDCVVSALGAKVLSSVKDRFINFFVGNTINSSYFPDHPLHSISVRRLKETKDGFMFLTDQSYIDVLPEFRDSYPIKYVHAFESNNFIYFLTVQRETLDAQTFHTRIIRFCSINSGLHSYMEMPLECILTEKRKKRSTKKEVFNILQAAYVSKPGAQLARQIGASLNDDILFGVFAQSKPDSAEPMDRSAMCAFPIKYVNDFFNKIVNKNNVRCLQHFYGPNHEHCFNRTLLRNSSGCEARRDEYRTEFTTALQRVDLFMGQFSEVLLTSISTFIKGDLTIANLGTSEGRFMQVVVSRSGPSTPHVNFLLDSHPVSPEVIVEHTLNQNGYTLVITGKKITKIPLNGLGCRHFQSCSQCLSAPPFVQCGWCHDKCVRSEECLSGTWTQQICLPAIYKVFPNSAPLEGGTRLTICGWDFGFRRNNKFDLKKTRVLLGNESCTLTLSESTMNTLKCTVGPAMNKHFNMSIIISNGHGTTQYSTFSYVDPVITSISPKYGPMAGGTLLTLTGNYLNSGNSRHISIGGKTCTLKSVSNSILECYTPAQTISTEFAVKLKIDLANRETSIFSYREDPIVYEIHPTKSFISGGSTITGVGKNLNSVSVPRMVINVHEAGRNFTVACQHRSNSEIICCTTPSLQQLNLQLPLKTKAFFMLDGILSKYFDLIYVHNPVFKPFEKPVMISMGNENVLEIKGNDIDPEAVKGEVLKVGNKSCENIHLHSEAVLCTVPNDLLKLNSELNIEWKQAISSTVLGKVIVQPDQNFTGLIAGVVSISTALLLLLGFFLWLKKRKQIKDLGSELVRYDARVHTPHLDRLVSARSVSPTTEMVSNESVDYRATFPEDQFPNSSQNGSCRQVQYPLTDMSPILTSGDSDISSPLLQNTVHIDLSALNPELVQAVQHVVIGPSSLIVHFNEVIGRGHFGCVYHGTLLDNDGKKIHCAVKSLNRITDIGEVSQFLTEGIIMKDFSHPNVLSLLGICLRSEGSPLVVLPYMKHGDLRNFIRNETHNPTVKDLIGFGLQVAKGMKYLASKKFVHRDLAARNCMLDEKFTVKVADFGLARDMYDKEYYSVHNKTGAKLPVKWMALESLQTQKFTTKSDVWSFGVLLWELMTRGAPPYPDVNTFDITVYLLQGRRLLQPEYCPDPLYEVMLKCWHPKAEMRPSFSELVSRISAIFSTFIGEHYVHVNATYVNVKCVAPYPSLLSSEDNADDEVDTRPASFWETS
Result type: scatter score 0-4, HPAF-II, 0.333 nM (score)
API: value field is a number in score; no unit string.

Binder	scatter score 0-4, HPAF-II, 0.333 nM (score)
71G2 chimeric llama-human IgG1 mAb (antibody, V domains shown, llama VH on human IgG1 CH1-CH2-CH3, llama VL on human lambda CL) VH: EVQLQESGGGLVQPGGSLRLSCAASGFTFSIYDMSWVRQAPGKGLEWVSTINSDGSSTSYVDSVKGRFTISRDNAKNTLYLQMNSLKPEDTAVYYCAKVYGSTWDVGPMGYGMDYWGKGTLVTVSS VL: SSALTQPSALSVSLGQTARITCQGGSLGSSYAHWYQQKPGQAPVLVIYGDDSRPSGIPERFSGSSSGGTATLTISGAQAEDEDDYYCQSTDSSGNTVFGGGTRLTVL	4

Inquiry: For the binder 71D6 chimeric llama-human IgG1 mAb (antibody, V domains shown, llama VH on human IgG1 CH1-CH2-CH3, llama VL on human lambda CL) VH: ELQLVESGGGLVQPGGSLRLSCAASGFTFSSYGMSWVRQAPGKGLEWVSAINSYGGSTSYADSVKGRFTISRDNAKNTLYLQMNSLKPEDTAVYYCAKEVRADLSRYNDYESYDYWGQGTQVTVSS VL: QPVLNQPSALSVTLGQTAKITCQGGSLGARYAHWYQQKPGQAPVLVIYDDDSRPSGIPERFSGSSSGGTATLTISGAQAEDEGDYYCQSADSSGSVFGGGTHLTVL , give its reported scatter score 0-4, HPAF-II, 0.333 nM.
Reply text: 4
